Cited source: patent US12583858B2

Measured pEC50 accompanies every entry in the list below.
measured-on: TDO2 (Homo sapiens)
Construct: decreased levels of NFK in SW48 cells (high TDO expressing cells)
Sequence (P48775 whole entry): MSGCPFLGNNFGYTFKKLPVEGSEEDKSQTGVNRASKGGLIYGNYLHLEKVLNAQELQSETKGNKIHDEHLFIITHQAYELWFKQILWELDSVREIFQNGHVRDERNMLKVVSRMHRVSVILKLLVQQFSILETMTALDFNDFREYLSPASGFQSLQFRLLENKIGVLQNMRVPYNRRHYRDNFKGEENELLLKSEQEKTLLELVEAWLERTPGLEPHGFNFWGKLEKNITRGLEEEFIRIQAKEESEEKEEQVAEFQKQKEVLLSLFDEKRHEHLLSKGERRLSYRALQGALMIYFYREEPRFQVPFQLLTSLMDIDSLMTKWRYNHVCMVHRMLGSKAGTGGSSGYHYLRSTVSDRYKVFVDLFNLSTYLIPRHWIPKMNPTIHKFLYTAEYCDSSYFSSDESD
test-description: TDO2 cell assay (NFK GreenScreen, SW48 cells)
Type: cell-based
experimental-context: SW48 cells (high TDO expressing), 200 uM tryptophan, 24 hours; Table 3; read-out: TDO2 Cell Fluor EC50
pEC50: −log10 of the molar value.

{"columns": ["compound", "limit-operator", "pEC50"],
 "data": [
  ["N[C@@H]1COC[C@@H]1[C@H]1c2ccccc2-c2cncn21 [Example 32d]", "<", 4.60],
  ["NC(=O)c1ccc2c(c1)CCC(C1c3ccccc3-c3cncn31)C2O (single isomer, unassigned) [Example 60b]", "=", 5.39],
  ["OC1c2cnccc2CC1C1c2ccccc2-c2cncn21 (single isomer, unassigned) [Example 71f]", "<", 4.60],
  ["Cn1cc2c(n1)CCC(C1c3ccccc3-c3cncn31)C2O (single isomer, unassigned) [Example 130a]", "=", 5.82],
  ["O[C@@H]1c2nncn2CC[C@H]1[C@H]1c2ccccc2-c2cncn21 (single isomer, unassigned)", "<", 4.60],
  ["CC(C)C(O)C1c2ccccc2-c2cncn21 (single isomer, unassigned) [Example 51a]", "<", 4.60],
  ["NC(=O)c1nc2c(s1)CCC(C1c3ccccc3-c3cncn31)C2O (single isomer, unassigned) [Example 149g]", "=", 4.62],
  ["O[C@@H]1c2cccnc2CC[C@H]1[C@@H]1c2ccccc2-c2cncn21 [Example 31g]", "=", 5.74],
  ["OC1COCC1C1c2ccc(F)cc2-c2cncn21 (single isomer, unassigned) [Example 30d]", "<", 4.60],
  ["CC(C)(C(N)=O)C(O)C1c2ccccc2-c2cncn21 (single isomer, unassigned) [Example 155b]", "<", 4.60],
  ["CC1(C)COCC(C2c3ccccc3-c3cncn32)C1O (single isomer, unassigned) [Example 66f]", "=", 6.80],
  ["Cn1cc2c(n1)CCC(C1c3ccccc3-c3cncn31)C2O (single isomer, unassigned) [Example 130e]", "=", 5.51],
  ["CS(=O)(=O)N1CC[C@@H]([C@@H]2c3ccccc3-c3cncn32)[C@H](O)C1 [Example 64a]", "<", 4.60],
  ["CS(=O)(=O)c1ccc2c(c1)[C@@H](O)[C@H]([C@H]1c3ccccc3-c3cncn31)CC2 (single isomer, unassigned) [Example 142a]", "=", 7.43],
  ["OC1COCCC1C1c2cccc(F)c2-c2cncn21 (single isomer, unassigned) [Example 99d]", "=", 6.14],
  ["OC1CC2(CC2)C1C1c2ccccc2-c2cncn21 (single isomer, unassigned) [Example 72g]", "=", 4.96]
]}
